tested on: MDA-MB-231; assay: Induction of apoptosis in human MDA-MB-231cells as increase in cleaved PARP1 level by measuring fold change in cleaved PARP1 expression by Western blot analysis relative to control; type: functional
Experimental Endpoint: fold change (FC)
Please give only the number in your answer, with no unit.

Query string: Identify measured fold change (FC) associated with `O=C1c2cccc(O)c2C(=O)c2c1[nH]c1ccccc21`
Result string: 1

Query string: Identify measured fold change (FC) associated with `O=C1C=C(Nc2cccc3ccccc23)C(=O)c2ccccc21`
Result string: 0.8

Query string: Identify measured fold change (FC) associated with `COc1cccc(NC2=CC(=O)c3ccccc3C2=O)c1`
Result string: 0.3

Query string: Identify measured fold change (FC) associated with `CN(C1=CC(=O)c2ccccc2C1=O)c1ccccc1`
Result string: 0.9

* * *

For each of the molecules below, state its pIC50.
tested on: MCF-10A; test: Cytotoxicity against human MCF-10A cells; format: cell-based
Quick note: pIC50 values are minus log10 of concentrations in mol/L.

Query string: Give the observed pIC50 of `O=C1C=C(Nc2cccc3ccccc23)C(=O)c2ccccc21` for MCF-10A.
Result string: 4.00

Query string: Give the observed pIC50 of `CN(C1=CC(=O)c2ccccc2C1=O)c1ccccc1` for MCF-10A.
Result string: 4.07

Query string: Give the observed pIC50 of `O=C1c2cccc(O)c2C(=O)c2c1[nH]c1ccccc21` for MCF-10A.
Result string: 3.98

Query string: Give the observed pIC50 of `COc1cccc(NC2=CC(=O)c3ccccc3C2=O)c1` for MCF-10A.
Result string: 4.05

* * *

For each of the compounds below, state its pIC50.
test system: MCF7; experiment: Cytotoxicity against human MCF7 cells assessed as reduction in cell viability incubated for 48 hrs by MTT assay; type: functional, cell-based; settings: Homo sapiens, MCF7, 48 h; read-out: IC50
Quick note: pIC50 values are minus log10 of concentrations in mol/L.

Query string: Identify measured pIC50 associated with `O=C1C(Nc2ccccc2)=CC(=O)c2c(O)cccc21`
Result string: 5.42

Query string: Identify measured pIC50 associated with `COc1ccc(NC2=CC(=O)c3ccccc3C2=O)cc1OC`
Result string: 5.19

Query string: Identify measured pIC50 associated with `CN(C1=CC(=O)c2ccccc2C1=O)c1ccccc1`
Result string: 5.82

Query string: Identify measured pIC50 associated with `O=C1c2ccccc2C(=O)c2c1[nH]c1ccccc21`
Result string: 5.35

Query string: Identify measured pIC50 associated with `O=C1C=C(NCCCN2CCOCC2)C(=O)c2ccccc21`
Result string: 5.21

Query string: Identify measured pIC50 associated with `O=C1C=C(NCCCO)C(=O)c2ccccc21`
Result string: 5.02

Query string: Identify measured pIC50 associated with `O=C1c2cccc(O)c2C(=O)c2c1[nH]c1ccccc21`
Result string: 5.52

Query string: Identify measured pIC50 associated with `Cc1ccc2[nH]c3c(c2c1)C(=O)c1ccccc1C3=O`
Result string: 5.28

Query string: Identify measured pIC50 associated with `COc1cc2[nH]c3c(c2c(OC)c1OC)C(=O)c1ccccc1C3=O`
Result string: 5.09

Query string: Identify measured pIC50 associated with COc1cc([C@@H]2c3cc4c(cc3[C@@H](O[C@@H]3O[C@@H]5CO[C@@H](C)O[C@H]5[C@H](O)[C@H]3O)[C@H]3COC(=O)[C@H]23)OCO4)cc(OC)c1O [ETOPOSIDE]
Result string: 4.35

* * *

test system: MCF7; assay: Cytotoxicity against human MCF7 cells assessed as reduction in cell viability incubated for 48 hrs by MTT assay; type: functional, cell-based; details: Homo sapiens, MCF7, 48 h; read-out: IC50
Could you mark each record true (1) if its IC50 falls strictly under 7 µM, and false (0) if it equals or exceeds it?

Query string: Find out if reported IC50 for `O=C1C=C(Nc2ccc(Cl)cc2)C(=O)c2ccccc21` is less than 7 µM
Result string: true (1)

Query string: Find out if reported IC50 for `O=C1c2ccccc2C(=O)c2c1[nH]c1ccc(F)cc21` is less than 7 µM
Result string: true (1)

Query string: Find out if reported IC50 for `Cc1cc2[nH]c3c(c2cc1C)C(=O)c1ccccc1C3=O` is less than 7 µM
Result string: true (1)

Query string: Find out if reported IC50 for `CN(C)CCCNC1=CC(=O)c2ccccc2C1=O` is less than 7 µM
Result string: true (1)

Query string: Find out if reported IC50 for `COc1ccc(NC2=CC(=O)c3ccccc3C2=O)cc1` is less than 7 µM
Result string: true (1)

Query string: Find out if reported IC50 for `COc1cccc(NC2=CC(=O)c3ccccc3C2=O)c1` is less than 7 µM
Result string: true (1)

Query string: Find out if reported IC50 for `COc1cccc2c1C(=O)c1c([nH]c3ccccc13)C2=O` is less than 7 µM
Result string: false (0)

Query string: Find out if reported IC50 for `COc1cc2[nH]c3c(c2cc1OC)C(=O)c1ccccc1C3=O` is less than 7 µM
Result string: false (0)

Query string: Find out if reported IC50 for `O=C1C=C(Nc2ccc3c(c2)OCO3)C(=O)c2ccccc21` is less than 7 µM
Result string: false (0)

Query string: Find out if reported IC50 for `O=C1c2ccccc2C(=O)c2c1[nH]c1cc(Cl)ccc21` is less than 7 µM
Result string: true (1)

Query string: Find out if reported IC50 for `Cn1c2c(c3ccccc31)C(=O)c1ccccc1C2=O` is less than 7 µM
Result string: true (1)

Query string: Find out if reported IC50 for `O=C1C=C(Nc2cccc(Cl)c2)C(=O)c2ccccc21` is less than 7 µM
Result string: true (1)

Query string: Find out if reported IC50 for CCC(C)c1ccc2[nH]c3c(c2c1)C(=O)c1ccccc1C3=O (stereo unspecified) is less than 7 µM
Result string: true (1)

* * *

system: HEK-293T; test: Cytotoxicity against human HEK293T cells assessed as reduction in cell viability incubated for 48 hrs by MTT assay; type: cell-based
Class membership depends on IC50 alone; the intervals are lower band (below 6 µM), central band (6 µM to below 9 µM), upper band (9 µM or more)

Query string: Category of `COc1ccc(NC2=CC(=O)c3ccccc3C2=O)cc1OC` :
Result string: central band

Query string: Category of `COc1cccc2c1C(=O)c1c([nH]c3ccccc13)C2=O` :
Result string: upper band

Query string: Category of `Cc1ccc(NC2=CC(=O)c3ccccc3C2=O)cc1C` :
Result string: central band

Query string: Category of CCC(C)c1ccc(NC2=CC(=O)c3ccccc3C2=O)cc1 (centres undefined) :
Result string: lower band

Query string: Category of `COc1cc(NC2=CC(=O)c3ccccc3C2=O)cc(OC)c1OC` :
Result string: central band

Query string: Category of `O=C1C(Nc2ccccc2)=CC(=O)c2c(O)cccc21` :
Result string: lower band

Query string: Category of `CN(C)CCCNC1=CC(=O)c2ccccc2C1=O` :
Result string: central band

Query string: Category of `O=C1C=C(Nc2ccc(F)c(F)c2)C(=O)c2ccccc21` :
Result string: upper band

Query string: Category of `O=C1c2ccccc2C(=O)c2c1[nH]c1ccc(Cl)cc21` :
Result string: central band

Query string: Category of `O=C1c2ccccc2C(=O)c2c1[nH]c1ccccc21` :
Result string: lower band

Query string: Category of `O=C1c2ccccc2C(=O)c2c1[nH]c1ccc(F)cc21` :
Result string: central band

Query string: Category of `COc1cccc2c1C(=O)C=C(Nc1ccccc1)C2=O` :
Result string: central band

Query string: Category of `CN1CCN(CCCNC2=CC(=O)c3ccccc3C2=O)CC1` :
Result string: upper band

Query string: Category of `COc1ccc2c3c([nH]c2c1)C(=O)c1ccccc1C3=O` :
Result string: upper band

Query string: Category of `O=C1C=C(Nc2cccc3ccccc23)C(=O)c2ccccc21` :
Result string: lower band

Query string: Category of `Cn1c2c(c3ccccc31)C(=O)c1ccccc1C2=O` :
Result string: central band

Query string: Category of COc1cc([C@@H]2c3cc4c(cc3[C@@H](O[C@@H]3O[C@@H]5CO[C@@H](C)O[C@H]5[C@H](O)[C@H]3O)[C@H]3COC(=O)[C@H]23)OCO4)cc(OC)c1O [ETOPOSIDE] :
Result string: upper band

Query string: Category of `O=C1c2ccccc2C(=O)c2c1[nH]c1cc(Cl)ccc21` :
Result string: central band

Query string: Category of `O=C1C=C(NCCCO)C(=O)c2ccccc21` :
Result string: upper band

Query string: Category of `CN(C1=CC(=O)c2ccccc2C1=O)c1ccccc1` :
Result string: lower band

Query string: Category of `O=C1C=C(Nc2ccccc2)C(=O)c2ccccc21` :
Result string: lower band

Query string: Category of `Cc1ccc(NC2=CC(=O)c3ccccc3C2=O)cc1` :
Result string: lower band
